TEST METHOD NOTES: cytotoxicity in HPDE-C7 cells, cell-based, fluorescence, HTS (AID 430);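 note: cells exposed to compound for 48 hours before viability readout; 0% = vehicle and 100% = reference cytotoxic drug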
CONDITIONS USED: HPDE-C7 pancreatic duct cells viability, at 10 µM, active compounds read high
Among all 63,000 compounds or so, about 1,100 (1.7%) were called active. For the sample, actives were picked, then their nearest neighbours and some compounds at random. Results with a measured potency or affinity are listed apart.
For each entry below, report its cytotoxicity value.
Numbers only, in %.

Observe how each entry below is paired with its result.
INSERT INTO results (compound, measurement) VALUES
  ('COc1cc(-c2nnc3n2N=C(c2ccccc2)CS3)cc(OC)c1OC', 57.4),
  ('COc1ccc(C2=Nn3c(nnc3-c3ccccc3)SC2)cc1OC', 3.6),
  ('COc1ccc(C2=Nn3c(nnc3-c3ccccn3)SC2)cc1OC', -0.7),
  ('CCCCc1ccc(CC(=O)O)cc1', -6.3),
  ('c1ccc(C2=Nn3c(nnc3-c3cc(-c4ccccc4)n[nH]3)SC2)cc1', 5.2),
  ('N=c1n(CCN2CCCCC2)c2ccccc2n1CC(O)c1cccc(Br)c1 (stereo unspecified)', 44.6),
  ('COc1ccc(OC)c(C2=Nn3c(nnc3-c3cc(OC)c(OC)c(OC)c3)SC2)c1', 4.4),
  ('COc1ccc(/C=N/n2cc(-c3ccc(OC)cc3)nc2N)cc1', -8.1);

# batch: return cytotoxicity for each of the 3 compounds below
1. COc1ccc(-c2nnc3n2N=C(c2ccccc2)CS3)cc1OC
2. CCOc1ccc(C2=Nn3c(nnc3-c3ccc(OC)cc3)SC2)cc1
3. O=C(O)C1CC(=O)N(c2ccc(F)cc2)C1 (stereo unspecified)

A)
[-2.9, 45.9, -16.5]

====

Would you mind telling me the reported cytotoxicity of each entry?
TEST METHOD NOTES: cytotoxicity in HPDE-C7 cells, cell-based, fluorescence, HTS (AID 430);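 note: cells exposed to compound for 48 hours before viability readout; 0% = vehicle and 100% = reference cytotoxic drug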
CONDITIONS USED: HPDE-C7 pancreatic duct cells viability, at 10 µM, active compounds read high
In all, about 63,000 compounds went through this assay and about 1,100 (1.7%) were called active. Many of the other results were omitted from the sample, so actives are more common in it than they were. Entries with a potency or affinity are not part of this list.
Numbers only, in %.

Some entries whose results are on file:
INSERT INTO results (compound, unit_of_measure, measurement) VALUES
  ('COc1cc2c(C#N)c(N3CCOCC3)nc(N)c2c(N)n1', '%', 37.5),
  ('O=C(Nc1ccccc1N1CCCC1)c1ccco1', '%', 3.9),
  ('COc1ccc(CN2CCN(C(=O)c3cc(OC)c(OC)c(OC)c3)CC2)cc1OC', '%', -11.1);

For each of the compounds below, state cytotoxicity.
1. COc1ccc(Cl)cc1NC(=O)C1CCCN(S(=O)(=O)c2cccc3nonc23)C1 (stereo not drawn)
2. CSc1nc(N)nc(SCC(=O)c2ccccc2)c1C#N
3. Cc1noc(C)c1S(=O)(=O)N(CC(=O)N1CCn2c1nc1ccccc12)c1ccc(C(C)C)cc1
4. O=C(C1CCN(Cc2ccc(F)cc2)CC1)N(CCO)Cc1ccccc1
5. c1ccc(-c2ccc(-c3nc(-c4ccccn4)no3)cc2)cc1

A)
1. -12.6
2. 13.7
3. 8.7
4. 2.8
5. -4.1

Provide reported cytotoxicity for each item, in the same order as listed.
1. COc1ccccc1-n1c(SCC(=O)NC(C)(C)C)nnc1-c1ccco1
2. N=c1n(CCOc2ccccc2)c2ccccc2n1CCN1CCOCC1
3. CCOC(=O)CSc1nnc([C@@H](NC(=O)OC(C)(C)C)C(C)C)o1
4. Cc1cc(NC(c2cccnc2)c2c(C)[nH]c3ccccc23)no1 (stereo not drawn)
5. Cn1c(=O)c2c(nc(N3CCCCC3)n2CCSc2nc3ccccc3o2)n(C)c1=O
6. NC(=O)c1ccccc1NS(=O)(=O)Cc1ccc(Cl)cc1

A)
1: 3.2; 2: -22.8; 3: 8.2; 4: 5.2; 5: -14.5; 6: 0

List cytotoxicity for every entry below, keeping the order given.
1. c1ccc(-c2cc(-c3nc(-c4cccnc4)no3)c3ccccc3n2)cc1
2. COc1cc(/C=N/n2nnnc2N)ccc1O
3. C/C=C/c1ccc(OC)c(OC(C)=O)c1
4. CCOC(=O)c1c(O)c2c(n(Cc3ccco3)c1=O)CCCC2
5. CCOC(=O)c1csc(NC(=O)CSc2nnnn2-c2ccc(OCC)cc2)n1
6. Cc1[nH]c(=O)[nH]c(=O)c1S(=O)(=O)N1CCCC(C(=O)NCCc2ccc(Cl)cc2)C1 (stereo not drawn)

A)
1. -11.7
2. 3.8
3. -5.1
4. -1.8
5. -21.4
6. -9.4

Go through the list and state cytotoxicity for each entry.
1. CC(c1ccccc1)N1CNc2c(c(=O)n(C)c(=O)n2C)C1 (stereo not drawn)
2. Oc1ccc(-c2nc3cnccn3c2Nc2ccc3c(c2)OCCO3)cc1
3. CCOC(=O)c1c(NC(=O)CN2CCOCC2)sc2c1CCCC2=O

A)
1: -8.9; 2: 3.8; 3: 3.3

====

TEST METHOD NOTES: cytotoxicity in HPDE-C7 cells, cell-based, fluorescence, HTS (AID 430);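 note: cells exposed to compound for 48 hours before viability readout; 0% = vehicle and 100% = reference cytotoxic drug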
CONDITIONS USED: HPDE-C7 pancreatic duct cells viability, at 10 µM, active compounds read high
In all, about 63,000 compounds went through this assay and about 1,100 (1.7%) were called active. The sample as a whole holds a higher share of actives than the screen did. Entries with a potency or affinity are not part of this list.
Kindly supply the reported cytotoxicity values for the records listed here.
Give bare numbers, in %.

Use these answered entries as a reference point.
INSERT INTO assay_data (compound, measurement) VALUES
  ('Cc1cc(C(=O)CSc2nnc(NCc3ccccc3)s2)c(C)n1C', 58),
  ('Cc1ccc(C2(C(F)(F)F)NC(=O)N3CCCN=C3S2)cc1 (stereo not drawn)', -18.8),
  ('COC(=O)c1[nH]c2c(c1C)C(=O)CC(c1ccccc1)C2 (stereo not drawn)', 45.6),
  ('COc1cc(C(=S)N2CCCC2)cc(Cl)c1O', -4),
  ('COCCOC(=O)c1[nH]c2c(c1C)C(=O)CC(c1ccc(F)cc1)C2 (stereo not drawn)', 4.9),
  ('COc1ccc(-c2nnc(COc3ccc4ccccc4c3)o2)cc1OC', 4.4),
  ('O=C(O)c1ccc(NC(=O)C2CC=CCC2C(=O)O)cc1 (stereo not drawn)', -3.4),
  ('CCCOCCOC(=O)C1=C(C)NC(=O)NC1c1cc(Cl)c(O)c(OC)c1 (stereo not drawn)', -9.1);

Batch of 2 compounds: report cytotoxicity for each.
1. CCCOC(=O)c1[nH]c2c(c1C)C(=O)CC(c1ccc(OC)c(OC)c1)C2 (stereo not drawn)
2. Cc1cc(C(=O)CSc2nnc(-c3ccccc3)n2C)c(C)n1C

A)
[-5.7, 5.7]

Each compound below has a reported value. Please supply its cytotoxicity.
1. COc1cc(-c2nnc(COc3ccc4cc(Br)ccc4c3)o2)cc(OC)c1OC
2. COc1ccc(-c2cn3c(n2)CCC3)cc1
3. COc1ccc(C(C)=O)cc1COC(=O)c1cc(C)oc1C

A)
1: 78.6; 2: 14.1; 3: 2.5

Would you mind listing cytotoxicity for each of the following compounds?
1. COc1cc(-c2nnc(COc3ccc4ccccc4c3)o2)cc(OC)c1OC
2. Cc1ccc(C2(C(F)(F)F)NC(=O)N3CCN=C3S2)cc1 (stereo not drawn)
3. Fc1ccc(-n2c(-c3ccco3)nc3nc4ccccc4nc32)cc1
4. CCOCCOC(=O)c1[nH]c2c(c1C)C(=O)CC(c1ccc(N(C)C)cc1)C2 (stereo not drawn)

A)
1. 34.6
2. 81.6
3. -1.1
4. -3.3

====

Hi there, I'd appreciate the recorded cytotoxicity for every entry that follows.
TEST METHOD NOTES: cytotoxicity in HPDE-C7 cells, cell-based, fluorescence, HTS (AID 430);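 note: cells exposed to compound for 48 hours before viability readout; 0% = vehicle and 100% = reference cytotoxic drug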
CONDITIONS USED: HPDE-C7 pancreatic duct cells viability, at 10 µM, active compounds read high
The campaign covered roughly 63,000 compounds. About 1,100 (1.7%) were called active. The list comes from a sample in which actives are over-represented; it also holds close analogues and randomly drawn compounds. Potency and affinity values are given separately.
Give bare numbers, in %.

Consider the following illustrative entries.
INSERT INTO results (molecule, unit_of_measure, measurement) VALUES
  ('Cc1nc(SCC(=O)CC(=O)OC(C)C)c(C#N)c(C)c1C', '%', -1.2),
  ('O=C(NCC1CCCO1)C1CCC(CNS(=O)(=O)c2ccccc2)CC1 (centres undefined)', '%', 13.6),
  ('Nc1cc(N)cc(-c2nc3ccccc3o2)c1', '%', 18.2),
  ('CCOC(=O)N1CCN(C(=O)c2ccc3c(c2)sc2nc(-c4ccc(OC)cc4)cn23)CC1', '%', 12.1),
  ('Cc1nnc(SCc2ccc(Cl)cc2)n1CC1CCCO1 (centres undefined)', '%', 2.4),
  ('Nc1ccc(-c2nc3ccc(-c4nc5ccccc5o4)cc3[nH]2)cc1', '%', 76.2),
  ('CCCCCC/C(=N/O)c1ccccn1', '%', 51.4),
  ('Cc1cc(C)c(C#N)c(SCC(=O)CC(=O)OC(C)C)n1', '%', 34.5),
  ('Nc1ccc(-c2nc3ccccc3[nH]2)cc1', '%', -5.6),
  ('O=C1NC2(CCCCC2)N=C1c1ccccc1', '%', -3);

Please give cytotoxicity for each item listed below.
1. COc1cccc(N2CCN(C(=O)CCn3c(=S)[nH]c4cc5c(cc4c3=O)OCO5)CC2)c1
2. Cc1noc(C)c1S(=O)(=O)NC1CCN(Cc2ccccc2)CC1
3. CC(C)OC(=O)CC(=O)CSc1nc2c(cc1C#N)CCC2
4. CCOC(=O)c1ccc(-n2[nH]c(-c3ccccc3)cc2=O)cc1
5. CCOC(=O)CC(=O)CSc1nc2c(cc1C#N)CCCCC2
6. COc1ccc2c(c1)sc1nc(-c3ccccc3)cn12

A)
1: -14.3; 2: 1.4; 3: 49.9; 4: 66.3; 5: -5.9; 6: 53.2
